Listing of recorded log10 of IC50 by entry.
Target: AR (Homo sapiens, UniProt P10275)
Construct: expressed in transfected cells; host or cells: CV1 cells
Sequence (P10275 1-920): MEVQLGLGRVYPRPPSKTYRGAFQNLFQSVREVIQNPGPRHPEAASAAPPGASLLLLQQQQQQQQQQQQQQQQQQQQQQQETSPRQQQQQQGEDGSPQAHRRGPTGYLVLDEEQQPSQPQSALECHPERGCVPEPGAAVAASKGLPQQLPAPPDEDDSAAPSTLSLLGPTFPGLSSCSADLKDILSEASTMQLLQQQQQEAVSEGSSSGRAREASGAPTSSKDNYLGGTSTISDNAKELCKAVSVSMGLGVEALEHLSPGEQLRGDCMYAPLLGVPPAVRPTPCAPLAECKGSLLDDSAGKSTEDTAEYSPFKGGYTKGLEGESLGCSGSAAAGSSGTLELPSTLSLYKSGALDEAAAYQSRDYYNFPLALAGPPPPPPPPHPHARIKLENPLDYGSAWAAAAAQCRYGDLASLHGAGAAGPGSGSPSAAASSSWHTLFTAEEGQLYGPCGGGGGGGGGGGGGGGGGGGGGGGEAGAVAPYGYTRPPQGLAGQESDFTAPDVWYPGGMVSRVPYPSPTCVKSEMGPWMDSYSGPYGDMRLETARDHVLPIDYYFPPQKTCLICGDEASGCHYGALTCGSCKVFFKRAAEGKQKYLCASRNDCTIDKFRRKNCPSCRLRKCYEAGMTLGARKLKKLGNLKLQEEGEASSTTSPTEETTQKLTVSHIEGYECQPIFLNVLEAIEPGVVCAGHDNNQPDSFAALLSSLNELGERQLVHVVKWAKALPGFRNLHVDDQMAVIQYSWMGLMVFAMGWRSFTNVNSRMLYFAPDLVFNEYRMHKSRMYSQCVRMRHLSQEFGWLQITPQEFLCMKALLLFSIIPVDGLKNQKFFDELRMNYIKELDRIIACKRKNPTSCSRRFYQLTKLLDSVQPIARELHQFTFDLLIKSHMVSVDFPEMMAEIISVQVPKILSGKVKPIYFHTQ
Assay: Reporter gene assay, AR transcriptional (MMTV-Luc) in CV1 cells
Assay type: cell-based
Details: pcDNA-AR + MMTV-Luc, 0.1 nM R1881 plus test compound, 24 hrs, read-out: B1 = AR transcriptional IC50 (μM) in CV1 cells
Endpoint name: log10 of IC50 (log10 of the value in µM)

{"columns": ["Compound", "log10 of IC50"],
 "data": [
  ["CC1(C)CC(=O)C2=C(C1)Nc1ccc3ncccc3c1C2c1cccs1 (centres unmarked) [Compound A66]", 0.61],
  ["CC1(C)CC(=O)C2=C(C1)Nc1ccc3ncccc3c1C2c1ccc(Br)s1 (centres unmarked) [Compound A63]", 0.28],
  ["O=C1CCCC2=C1C(c1ccc(Cl)cc1Cl)c1c(ccc3ccccc13)N2 (centres unmarked) [Compound A7]", 0.58],
  ["Cc1ccsc1C1C2=C(CC(C)(C)CC2=O)Nc2ccc3ncccc3c21 (centres unmarked) [Compound A114]", 0.04],
  ["CC1(C)CC(=O)C2=C(C1)Nc1ccc3ncccc3c1C2c1ccc(Br)cn1 (centres unmarked) [Compound A33]", 0.53],
  ["CC1(C)CC(=O)C2=C(C1)Nc1ccc3ncccc3c1C2c1ccsc1 (centres unmarked) [Compound A69]", 0.79],
  ["CC1(C)CC(=O)C2=C(C1)Nc1ccc3ncccc3c1C2c1ccc(C(F)(F)F)cc1 (centres unmarked) [Compound A41]", 0.28],
  ["CC1(C)CC(=O)C2=C(C1)Nc1ccc3ncccc3c1C2c1ccc(B(O)O)c(F)c1 (centres unmarked) [Compound A39]", 1.72],
  ["CC1(C)CC(=O)C2=C(C1)Nc1ccc3cn[nH]c3c1C2c1ccc(Br)s1 (centres unmarked) [Compound A112]", 0.51],
  ["CC1(C)CC(=O)C2=C(C1)Nc1ccc3c(c1C2c1ccc(Cl)s1)OCO3 (centres unmarked) [Compound A107]", -0.05],
  ["CC1(C)CC(=O)C2=C(C1)Nc1ccc3ncccc3c1C2c1ccc(Cl)c([N+](=O)[O-])c1 (centres unmarked) [Compound A5]", 0.52],
  ["Cc1ccc(C2C3=C(CC(C)(C)CC3=O)Nc3ccc4nccnc4c32)s1 (racemic) [Compound A104]", 0.30],
  ["CC1(C)CC(=O)C2=C(C1)Nc1ccc3ccccc3c1C2c1ccncc1 (centres unmarked) [Compound A12]", 0.93],
  ["Cn1ncc2ccc3c(c21)C(c1ccc(Br)s1)C1=C(CC(C)(C)CC1=O)N3 (centres unmarked) [Compound A113]", 0.71],
  ["CC1(C)CC(=O)C2=C(C1)Nc1ccc3ccccc3c1C2c1cccnc1 (centres unmarked) [Compound A13]", 1.08],
  ["O=C1CCCC2=C1Nc1ccc3ccccc3c1C2c1ccc([N+](=O)[O-])cc1 (centres unmarked) [Compound A10]", 0.76],
  ["CC1(C)CC(=O)C2=C(C1)Nc1ccc3ncccc3c1C2c1ccc(Cl)c(Cl)c1 (centres unmarked) [Compound A31]", 0.34],
  ["CC1(C)CC(=O)C2=C(C1)Nc1ccc3c(c1C2c1ccc(Br)s1)OCO3 (centres unmarked) [Compound A111]", 0.15]
]}

Recorded values, source patent US20180303807A1.
